From: patent US9890185B2

Please provide measured IC50 for the entries that follow.
TARGET OF ASSAY: p38 MAPKα isoform (MAPK14) (Homo sapiens (Human))
PROCEDURE DETAILS: p38 MAPKα enzyme inhibition (FRET, Z-LYTE, Method 2)
State just the number; it will be interpreted in nM.

Exercise: Which IC50 is reported for this molecule? COc1c(NC(=O)Nc2ccc(Oc3ccnc(Nc4ccccc4)n3)c3ccccc23)cc(C(C)(C)C)cc1P(C)(C)=O [15(b)]
Solution: 59

Exercise: Which IC50 is reported for this molecule? COc1cc(Nc2cc(Oc3ccc(NC(=O)Nc4cc(C(C)(C)C)cc(OCC(CO)(CO)CO)c4OC)c4ccccc34)ccn2)cc(C(N)=O)c1 [Example 67]
Solution: 284

Exercise: Which IC50 is reported for this molecule? COCCOCCOCCOc1cc(Nc2cc(Oc3ccc(NC(=O)Nc4cc(C(C)(C)C)cc(P(C)(C)=O)c4OC)c4ccccc34)ccn2)cc(OC)c1 [Example 2]
Solution: 51

---

TARGET OF ASSAY: p38 MAPKα isoform (MAPK14) (Homo sapiens (Human), UniProt Q16539)
Sequence (Q16539 whole entry, canonical isoform): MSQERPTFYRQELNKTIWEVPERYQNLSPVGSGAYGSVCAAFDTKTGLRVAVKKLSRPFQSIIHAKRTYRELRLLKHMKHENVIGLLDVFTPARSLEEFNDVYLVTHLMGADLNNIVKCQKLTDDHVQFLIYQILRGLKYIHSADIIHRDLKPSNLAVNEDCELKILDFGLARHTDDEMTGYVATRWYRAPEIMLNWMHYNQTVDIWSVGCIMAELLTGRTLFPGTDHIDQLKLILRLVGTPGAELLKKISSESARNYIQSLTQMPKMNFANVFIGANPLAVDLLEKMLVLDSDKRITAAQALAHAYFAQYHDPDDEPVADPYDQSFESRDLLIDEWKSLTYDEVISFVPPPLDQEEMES
PROCEDURE DETAILS: p38 MAPKα enzyme inhibition (FRET, Z-LYTE, Method 2)
Type: biochemical
Sorting guide: entries reporting IC50 beneath 300 nM go in the MET pile, the rest go in the NOT MET pile.

Exercise: # strict comparison: is reported IC50 < 300 nM? input = `COc1cc(Nc2cc(Oc3ccc(NC(=O)Nc4cc(C(C)(C)C)cc(P(C)(C)=O)c4OC)c4ccccc34)ccn2)cc(S(=O)(=O)N(C)C)c1`
Solution: NOT MET

Exercise: # strict comparison: is reported IC50 < 300 nM? input = `COc1cc(Nc2cc(Oc3ccc(NC(=O)Nc4cc(C(C)(C)C)cc(C(=O)NCCN5CCOCC5)c4OC)c4ccccc34)ccn2)cc(OC)c1`
Solution: NOT MET

Exercise: # strict comparison: is reported IC50 < 300 nM? input = `COc1cc(Nc2cc(Oc3ccc(NC(=O)Nc4cc(C(C)(C)C)cc(P(C)(C)=O)c4OC)c4ccccc34)ccn2)cc(OC)c1`
Solution: MET

Exercise: # strict comparison: is reported IC50 < 300 nM? input = `COc1c(NC(=O)Nc2ccc(Oc3ccnc(Nc4cc(C)cc(C)c4)c3)c3ccccc23)cc(C(C)(C)C)cc1P(C)(C)=O`
Solution: MET

Exercise: # strict comparison: is reported IC50 < 300 nM? input = `COc1c(NC(=O)Nc2ccc(Oc3ccnc(Nc4cnn(C)n4)n3)c3ccccc23)cc(C(C)(C)C)cc1P(C)(C)=O`
Solution: MET

Exercise: # strict comparison: is reported IC50 < 300 nM? input = COc1cc(Nc2cc(Oc3ccc(NC(=O)Nc4cc(C(C)(C)C)cc([S+](C)[O-])c4OC)c4ccccc34)ccn2)cc(C(=O)NCCN2CCOCC2)c1 (stereo not shown)
Solution: MET

Exercise: # strict comparison: is reported IC50 < 300 nM? input = COc1c(NC(=O)Nc2ccc(Oc3ccnc(Nc4ccccc4)c3)c3ccccc23)cc(C(C)(C)C)cc1OCP(C)(C)=O [15(e)]
Solution: NOT MET

Exercise: # strict comparison: is reported IC50 < 300 nM? input = `COc1cc(Nc2cc(Oc3ccc(NC(=O)Nc4cc(C(C)(C)C)cc(CC(N)=O)c4OC)c4ccccc34)ccn2)cc(C(N)=O)c1`
Solution: MET

Exercise: # strict comparison: is reported IC50 < 300 nM? input = `COc1cc(CO)cc(Nc2cc(Oc3ccc(NC(=O)Nc4cc(C(C)(C)C)cc(CC(N)=O)c4OC)c4ccccc34)ccn2)c1`
Solution: MET

Exercise: # strict comparison: is reported IC50 < 300 nM? input = COCCOCCOCCNC(=O)c1cc(Nc2cc(Oc3ccc(NC(=O)Nc4cc(C(C)(C)C)cc([S+](C)[O-])c4OC)c4ccccc34)ccn2)cc(OC)c1 (stereo not shown)
Solution: MET

Exercise: # strict comparison: is reported IC50 < 300 nM? input = `COc1cc(Nc2nccc(Oc3ccc(NC(=O)Nc4cc(C(C)(C)C)cc(OCP(C)(C)=O)c4OC)c4ccccc34)n2)cc(OC)c1`
Solution: NOT MET

Exercise: # strict comparison: is reported IC50 < 300 nM? input = COc1cc(Nc2cc(Oc3ccc(NC(=O)Nc4cc(C(C)(C)C)cc([S+](C)[O-])c4OC)c4ccccc34)ccn2)ccc1C(=O)NCCN1CCOCC1 (stereo not shown)
Solution: MET

Exercise: # strict comparison: is reported IC50 < 300 nM? input = `COc1cncc(Nc2cc(Oc3ccc(NC(=O)Nc4cc(C(C)(C)C)cc(P(C)(C)=O)c4OC)c4ccccc34)ccn2)c1`
Solution: MET
